Value source: PubChem BioAssay (NCI)

# TGI values compiled below
- Tested on: OVCAR-3 ovarian
- TEST_SUMMARY: NCI tumour cell line growth inhibition, 48 h
READOUT_TYPE: TGI

INSERT INTO measurements (molecule, readout_type, meas_value) VALUES
  ('N/N=C(\CCN1CCCC1)CC(c1ccccc1)c1c(O)c2ccccc2oc1=O (configuration not stated)', 'TGI', '> 100 µM'),
  ('Oc1cc2ccccc2cc1-c1n[nH]c(=S)n1CCc1ccccc1', 'TGI', '94 µM'),
  ('NC(N)=NCCCC(NC(=O)OCCCCCn1ccc(N)nc1=O)C(=O)O (configuration not stated)', 'TGI', '> 100 µM'),
  ('COc1ccc(C2Oc3ccc(O)cc3[C@@H]2C)cc1OC (some centres not stated)', 'TGI', '> 100 µM'),
  ('COCC1OC(OC2OCC3OC4(OCC(O)(C(C)OC)C5OCOC54)OC3C2OC)C(OC)C(O)C1OC1OC(C)C(OC)C(OC2OC(C)C3OC4(CC(O)C(OC5CC(OC6CC(C)([N+](=O)[O-])C(OC)C(C)O6)C(OC(=O)c6c(C)c(Cl)c(O)c(Cl)c6OC)C(C)O5)C(C)O4)OC3(C)C2O)C1O (configuration not stated)', 'TGI', '> 100 µM'),
  ('COc1ccc(-n2cnc3c(N)nc(N)nc32)cc1', 'TGI', '> 100 µM'),
  ('COc1ccc(N=NC(=O)NC(CC(C)C)C(=O)NC(CC(C)C)C(=O)O)cc1 (configuration not stated)', 'TGI', '> 100 µM'),
  ('COc1cc2c(cc1O)[C@@]1(Cc3ccc(OC)c(OC)c3)CCC(=O)N1CC2', 'TGI', '> 100 µM'),
  ('Cn1ccnc1CCc1ccc(Cl)cc1Cl', 'TGI', '> 100 µM'),
  ('NCCN1C(=O)c2cc(Cl)c(Cl)cc2C1(O)c1ccc(Cl)cc1 (configuration not stated)', 'TGI', '4.74 µM'),
  ('COCOCCCCCO[Si](C)(C)C(C)(C)C', 'TGI', '27.6 µM'),
  ('CC(=O)Oc1ccc2c3c1[C@H]1O[C@H]1c1cccc(c1-3)[C@@H]1O[C@H]21', 'TGI', '11.8 µM'),
  ('CC(=O)N(C(C)=O)c1c(N)n(C)c(=O)[nH]c1=O', 'TGI', '> 100 µM'),
  ('CC[C@H](C)[C@H](NC(=O)C12CC(NC)(C1)C2)C(=O)N(C)[C@H](C[C@@H](OC(C)=O)c1nc(C(=O)N[C@@H](Cc2ccccc2)C[C@H](C)C(=O)OC)cs1)C(C)C', 'TGI', '0.511 µM'),
  ('COc1ccccc1C=NC12CC3CC(CC(C3)C1)C2', 'TGI', '> 100 µM'),
  ('C#CCC(O)c1ccccc1C(O)CC#C (configuration not stated)', 'TGI', '> 100 µM'),
  ('CCc1c(-c2ccccc2)[nH]c2ccccc2c1=O', 'TGI', '> 100 µM'),
  ('CCCC(=O)OCC(COC(=O)CCC)OC(=O)CCC', 'TGI', '> 100 µM'),
  ('O=C1C(C(Nc2ccccc2)c2ccccc2)=C([O-])c2ccccc21.O=C1C(C(Nc2ccccc2)c2ccccc2)=C([O-])c2ccccc21.[Ni+2] (configuration not stated)', 'TGI', '66.4 µM'),
  ('CC(=O)OCC1OC(n2c(C)c(C(C)=O)c(-c3ccc(Cl)cc3)c(C#N)c2=S)C(OC(C)=O)C(OC(C)=O)C1OC(C)=O (configuration not stated)', 'TGI', '> 100 µM'),
  ('COc1cccc(C2CC(=O)c3cc(N4CCCC4)ccc3N2)c1 (configuration not stated)', 'TGI', '> 100 µM'),
  ('COC(=O)C1CC2c3c(c4ccccc4n3C)CC(C1=O)N2C (configuration not stated)', 'TGI', '> 100 µM');
